Tested Target: human EGFR L858R/T790M (NIH/3T3 cells) (Homo sapiens, UniProt P00533, L858R/T790M)
Sequence (P00533 25-1210 T790M/L858R): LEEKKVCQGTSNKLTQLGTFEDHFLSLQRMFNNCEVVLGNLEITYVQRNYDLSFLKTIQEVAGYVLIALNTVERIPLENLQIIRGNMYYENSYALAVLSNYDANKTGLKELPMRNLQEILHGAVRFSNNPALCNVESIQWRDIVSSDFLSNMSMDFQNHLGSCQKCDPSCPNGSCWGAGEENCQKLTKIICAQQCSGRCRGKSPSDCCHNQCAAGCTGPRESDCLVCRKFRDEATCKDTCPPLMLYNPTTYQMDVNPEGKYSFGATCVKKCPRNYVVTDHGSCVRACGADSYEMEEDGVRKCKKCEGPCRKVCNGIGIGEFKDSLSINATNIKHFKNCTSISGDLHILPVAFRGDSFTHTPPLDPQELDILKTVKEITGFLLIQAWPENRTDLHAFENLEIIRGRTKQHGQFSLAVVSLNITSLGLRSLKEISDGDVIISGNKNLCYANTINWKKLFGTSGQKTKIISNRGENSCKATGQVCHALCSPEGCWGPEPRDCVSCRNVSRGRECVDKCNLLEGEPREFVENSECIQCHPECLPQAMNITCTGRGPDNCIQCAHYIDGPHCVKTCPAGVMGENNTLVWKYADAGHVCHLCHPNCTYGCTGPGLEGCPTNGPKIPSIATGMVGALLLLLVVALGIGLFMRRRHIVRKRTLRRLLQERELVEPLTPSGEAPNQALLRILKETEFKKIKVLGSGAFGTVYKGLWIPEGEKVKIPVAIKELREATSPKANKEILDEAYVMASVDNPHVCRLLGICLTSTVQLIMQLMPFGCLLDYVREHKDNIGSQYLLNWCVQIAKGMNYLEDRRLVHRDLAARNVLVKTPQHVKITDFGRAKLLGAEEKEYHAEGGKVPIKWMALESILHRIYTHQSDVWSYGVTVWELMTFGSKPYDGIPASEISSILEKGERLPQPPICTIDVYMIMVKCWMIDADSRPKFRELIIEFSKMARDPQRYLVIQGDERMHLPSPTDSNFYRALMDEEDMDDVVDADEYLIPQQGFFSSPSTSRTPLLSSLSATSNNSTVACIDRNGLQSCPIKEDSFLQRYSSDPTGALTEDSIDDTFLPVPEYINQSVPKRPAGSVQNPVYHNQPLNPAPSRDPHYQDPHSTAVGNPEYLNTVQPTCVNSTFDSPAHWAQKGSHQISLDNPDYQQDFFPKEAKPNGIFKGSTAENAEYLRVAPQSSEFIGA
Test Summary: EGFR target modulation in engineered NIH/3T3 cell lines (phospho-EGFR Y1068 AlphaLISA), EGFR L858R/T790M
Assay type: cell-based
Assay Conditions: engineered NIH/3T3 cells, read-out: NIH3T3 IC50 (μM) EGFR (L858R/T790M)
Description: EGFR Target Modulation in Engineered NIH/3T3 Cell Lines Tissue Culture. The cells were harvested with 0.05% Trypsin/EDTA (Hyclone #SH30236.01), re-suspended in 5% FBS/DMEM Pen/Strep without Puromycin and plated at 9,000 cells per well in 50 μl of media in a 384-well black plate with clear bottoms (Greiner #789068G). […] With these parameters, the IC50's for each compound in each cell line was calculated using non-linear curve fitting analysis.
Quick reference: IC50 of the listed items.
Give the value, in units of µM, as a plain number.

Example entries and their recorded answers appear below.
[[record]]
molecule = "Cc1cccc2nc(NC(=O)c3ccc(C(F)(F)F)nc3)n(C3CCCCN(C(=O)/C=C/CN(C)C)C3)c12 (stereo not shown)"
result_unit = "µM"
recorded_result = 0.031

[[record]]
molecule = "CCOc1cc(C(=O)Nc2nc3cccc(C)c3n2C2CCCCN(C(=O)/C=C/CN(C)C)C2)ccn1 (stereo not shown)"
result_unit = "µM"
recorded_result = 0.002

[[record]]
molecule = "C=CC(=O)N1CCCCC(n2c(NC(=O)c3ccccc3)nc3cccc(C(=O)NCC(=O)OC)c32)C1 (stereo not shown)"
result_unit = "µM"
recorded_result = 0.045

[[record]]
molecule = "Cc1cccc2nc(NC(=O)c3ccco3)n(C3CCCCN(C(=O)/C=C/CN(C)C)C3)c12 (stereo not shown)"
result_unit = "µM"
recorded_result = 0.008

[[record]]
molecule = "Cc1cc(C(=O)Nc2nc3cccc(Cl)c3n2[C@@H]2CCCCN(C(=O)/C=C/CN3CCC(F)(F)C3)C2)ccn1"
result_unit = "µM"
recorded_result = 0.174


As a next step, examine the molecule that follows.
### Prompt Could you please provide reported IC50 for C=CS(=O)(=O)N1CCCCC(n2c(NC(=O)c3cccc(C(F)(F)F)c3)nc3cccc(C)c32)C1 (stereo not shown) ? Thanks!
### Response 0.037
